FYI, the data here is from patent US10941147B2.

Readings of pEC50 for the listed compounds
target: γ-secretase (Homo sapiens); construct: Human neuroglioma H4 cells overexpressing human APP695; endogenous in cells; experiment: Cellular γ-secretase assay (inhibition of Aβ42 secretion, AlphaLisa); conditions: Human neuroglioma H4 cells overexpressing human APP695 Swedish double mutation; 24 hr compound incubation; secreted Aβ42 in supernatant
In plain terms, pEC50 is the concentration in mol/L turned into minus its base-10 logarithm.

Some compounds with recorded pEC50:
Fc1ccc(C2CCCCn3nc(N[C@@H]4[C@@H]5CC[C@H]4CN(c4ccnc(C(F)(F)F)c4)C5)nc32)c(F)c1F (stereo partly shown) :: 7.46
Cc1cc(N2C[C@H]3CC[C@@H](C2)[C@@H]3Nc2nc3n(n2)CCCC[C@H]3c2ccc(F)c(F)c2F)ncn1 :: 8.08
Cc1cc(N2C[C@H]3CC[C@@H](C2)[C@@H]3Nc2nc3n(n2)CCCC[C@@H]3c2cccc(C(F)(F)F)c2)ncn1 :: 7.82
COc1cc(N2C[C@H]3CC[C@@H](C2)[C@@H]3Nc2nc3n(n2)CCCCC3c2ccc(F)c(F)c2F)ncn1 (stereo partly shown) :: 7.27
Cc1cc(N2C[C@H]3CC[C@@H](C2)[C@@H]3Nc2nc3n(n2)CCCC[C@H]3c2ccc(Cl)cc2)ncn1 :: 7.50

Could you share which pEC50 value was measured for Cc1cc(N2C[C@H]3CC[C@@H](C2)[C@@H]3Nc2nc3n(n2)CCCCC3c2ccc(Cl)cc2)ncn1 (mixture of isomers) ? 7.63

Could you share which pEC50 value was measured for FC(F)(F)c1cccc(C2CCCCn3nc(N[C@@H]4[C@@H]5CC[C@H]4CN(c4ccnc(C(F)(F)F)c4)C5)nc32)c1 (stereo partly shown) ? 7.47

Could you share which pEC50 value was measured for Cc1cc(N2C[C@H]3CC[C@@H](C2)[C@@H]3Nc2nc3n(n2)CCCC[C@H]3c2cccc(C(F)(F)F)c2)ncn1 ? 7.83

Could you share which pEC50 value was measured for Fc1ccc(C2CCCCn3nc(N[C@@H]4[C@@H]5CC[C@H]4CN(c4cc(Cl)ncn4)C5)nc32)c(F)c1F (mixture of isomers) ? 7.75

Could you share which pEC50 value was measured for Cc1cc(N2C[C@H]3CC[C@@H](C2)[C@@H]3Nc2nc3n(n2)CCCCC3c2ccc(C(F)(F)F)cc2)ncn1 (mixture of isomers) ? 7.69

Could you share which pEC50 value was measured for Cc1cc(N2C[C@H]3CC[C@@H](C2)[C@@H]3Nc2nc3n(n2)CCCC[C@@H]3c2ccc(F)c(F)c2F)ncn1 ? 8.15

Could you share which pEC50 value was measured for Cc1cc(N2C[C@H]3CC[C@@H](C2)[C@@H]3Nc2nc3n(n2)CCCC[C@@H]3c2ccc(Cl)cc2)ncn1 ? 7.31

Could you share which pEC50 value was measured for Cc1cc(N2C[C@H]3CC[C@@H](C2)[C@@H]3Nc2nc3n(n2)CCCCC3c2ccc(F)c(F)c2F)ncn1 (mixture of isomers) ? 7.90

Could you share which pEC50 value was measured for COc1cc(N2C[C@H]3CC[C@@H](C2)[C@@H]3Nc2nc3n(n2)CCCCC3c2ccc(F)c(F)c2F)ccn1 (stereo partly shown) ? 8.07

Could you share which pEC50 value was measured for FC(F)(F)c1cc(N2C[C@H]3CC[C@@H](C2)[C@@H]3Nc2nc3n(n2)CCCCC3c2ccc(Cl)cc2)ccn1 (stereo partly shown) ? 7.30

Could you share which pEC50 value was measured for Cc1cc(N2C[C@H]3CC[C@@H](C2)C3Nc2nc3n(n2)CCCC[C@@H]3c2ccc(C(F)(F)F)cc2)ncn1 (stereo partly shown) ? 7.94

Could you share which pEC50 value was measured for Fc1ccc([C@H]2CCCCn3nc(N[C@@H]4[C@@H]5CC[C@H]4CN(c4cc(Cl)ncn4)C5)nc32)c(F)c1F ? 7.90
